# Test system: Proteasome assembly chaperone 3 (Homo sapiens) (UniProt Q9BT73)
# Sequence (whole entry): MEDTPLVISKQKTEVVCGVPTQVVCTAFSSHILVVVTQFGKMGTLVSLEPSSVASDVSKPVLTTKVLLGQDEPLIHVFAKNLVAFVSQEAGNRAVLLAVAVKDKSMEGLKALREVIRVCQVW
# Assay overview: Inhibition of N-terminal mKG-labeled PAC3/C-terminal mKG-labeled PAC3 homodimer (unknown origin) protein-protein interaction at 10 uM preincubated for 1 hr with protein followed by another protein addition and measured after 17 hrs by fluorescence based protein-fragment complementation assay relative to control
Would you mind labelling by inhibition? At or over 90% is 1, under is 0.

| Smiles entry | Classification |
| --- | --- |
| COc1c(C)c(OC(=O)c2c(C)c(C)c(OC(=O)c3c(C)c(C(=O)Oc4c(C)c(C)c(C(=O)Oc5c(C)c(C)c(C(=O)O)c(OC)c5C)c(OC)c4C)c(OC)c(C)c3OC)c(C)c2OC)c(C)c(C)c1C(=O)O | 0 |
| COc1c(C)c(O)c(C)c(C)c1C(=O)Oc1c(C)c(C)c(C(=O)O)c(OC)c1C | 0 |
| COCOC(=O)c1c(C)c(C)c(OC(=O)c2c(C)c(C)c(OCc3cccc(COc4c(C)c(C)c(C(=O)Oc5c(C)c(C)c(C(=O)OCOC)c(OC)c5C)c(OC)c4C)c3Br)c(C)c2OC)c(C)c1OC | 0 |
| COc1c(C)c(OC(=O)c2ccc(Oc3cccc(C(=O)Oc4c(C)c(C)c(C(=O)Oc5c(C)c(C)c(C(=O)O)c(OC)c5C)c(OC)c4C)c3)cc2)c(C)c(C)c1C(=O)O | 1 |
| COc1c(C)c(OC(=O)c2c(C)c(C)c(OC[C@H](O)[C@@H](O)COc3c(C)c(C)c(C(=O)Oc4c(C)c(C)c(C(=O)O)c(OC)c4C)c(OC)c3C)c(C)c2OC)c(C)c(C)c1C(=O)O | 0 |
| COc1c(C)c(OC(=O)c2ccc(Oc3cccc(C(=O)Oc4c(C)c(C)c(C(=O)Oc5c(C)c(C)c(C(=O)O)c(OC)c5C)c(OC)c4C)c3C)cc2)c(C)c(C)c1C(=O)O | 1 |
| COc1c(C)c(OC(=O)c2c(C)c(C)c(OC(=O)CCC(=O)Oc3c(C)c(C)c(C(=O)Oc4c(C)c(C)c(C(=O)O)c(OC)c4C)c(OC)c3C)c(C)c2OC)c(C)c(C)c1C(=O)O | 0 |
| COc1c(C)c(OC(=O)c2ccc(Oc3cccc(C(=O)Oc4c(C)c(C)c(C(=O)Oc5c(C)c(C)c(C(=O)O)c(OC)c5C)c(OC)c4C)c3C)c(C)c2)c(C)c(C)c1C(=O)O | 1 |
| COc1c(C)c(OC(=O)c2c(C)c(C)c(OC[C@@H]3OC(=O)O[C@H]3COc3c(C)c(C)c(C(=O)Oc4c(C)c(C)c(C(=O)O)c(OC)c4C)c(OC)c3C)c(C)c2OC)c(C)c(C)c1C(=O)O | 0 |
| COc1c(C)c(OC(=O)c2c(C)c(C)c(OC/C=C/COc3c(C)c(C)c(C(=O)Oc4c(C)c(C)c(C(=O)O)c(OC)c4C)c(OC)c3C)c(C)c2OC)c(C)c(C)c1C(=O)O | 1 |
